assay-explanation: physchem
details: water
endpoint-label: solubility (mg/mL)
Your answer is read as mg/mL, so omit the unit and give the number.

INPUT: Complete the entry with solubility for CC1=CC(=C(C#N)C#N)C=C(C)N1CCOCCOP(=O)([O-])O.[Na+]
OUTPUT: 168

###

assay-explanation: UV absorption spectrum (absorption maximum and extinction E)
Format: physicochemical
details: UV (water)
endpoint-label: UV absorption maximum (nm)
The figure you give is taken to be in nm; do not add the unit.

Worked set:
[[record]]
substance_smiles = "CC1=CC(=C(C#N)C#N)C=C(C)N1CCOCCOP(=O)([O-])O.[Na+]"
reported_result = 350

[[record]]
substance_smiles = "CC1=CC(=C(C#N)C#N)C=C(C)N1c1cccc(OCCCS(=O)(=O)[O-])c1.[Na+]"
reported_result = 352

[[record]]
substance_smiles = "CC1=CC(=C(C#N)C#N)C=C(C)N1CCOS(=O)(=O)[O-].[Na+]"
reported_result = 352


Here is another compound to look at.
INPUT: Read off the recorded UV absorption maximum for CC1=CC(=C(C#N)C#N)C=C(C)N1CCOCC[n+]1ccccc1
OUTPUT: 352

Source of measurements: patent US7897779B2
